// data source = patent US9814709B2

- Test system: acute myelocytic leukemia (AML) cell line MOLM14
- experimentalProtocol: Cancer cell growth, Cell Titer-Glo
- Type: cell-based
- experimentalConditions: Homo sapiens, MOLM-14; MOLM14, 72 hrs; read-out: Half inhibitory concentration IC50
experimentalEndpoint: pIC50
Formally, pIC50 is defined as -log10 of the concentration c, with c in mol/L.

QUERY: I'd like to know its pIC50. The compound in question is C=CC(=O)Nc1cc(-n2c(=O)ccc3cnc4ccc(-n5cccn5)cc4c32)ccc1C [Compound 1]
RESULT: 5.82

* * *

- System: human non-small cell lung cancer cells H1975 (expressing EGFR L858R/T790M double mutant gene)
- experimentalProtocol: Cancer cell growth, Cell Titer-Glo
- Assay type: cell-based
- experimentalConditions: NCI-H1975, H1975, 72 hrs, read-out: Half inhibitory concentration IC50
experimentalEndpoint: IC50 (µM)
Hi! Could you send only the number? It should be in µM, unit omitted.

QUERY: I'd like to know its IC50. The compound in question is C=CC(=O)Nc1cc(-n2c(=O)ccc3cnc4ccc(-n5cccn5)cc4c32)ccc1C
RESULT: 3.81

* * *

- System: EB virus infected human peripheral lymphocyte cells JVM-2
- experimentalProtocol: Cancer cell growth, Cell Titer-Glo
- Type: cell-based
- experimentalConditions: JVM-2, 72 hrs, read-out: Half inhibitory concentration IC50
experimentalEndpoint: IC50 (µM)
Hi! Could you send only the number? It should be in µM, unit omitted.

QUERY: I'd like to know its IC50. The molecule in question is C=CC(=O)Nc1cc(-n2c(=O)ccc3cnc4ccc(-n5cccn5)cc4c32)ccc1C
RESULT: 3.4
